Test: chemical genetic growth profiling, strain panel (AID 1159580);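 also: tested at 20 µM; growth read once vehicle control cultures reached saturation at 30 °C; 1 = growth at the plate median or of vehicle wells; lower values mean less growth of the strain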
Settings: S. cerevisiae deletion strains, growth OD, locus YPL256C, strain CLN2, active compounds read low
The campaign covered roughly 5,500 compounds. About 2,000 (36%) were called active. Roughly 18% stayed inconclusive and do not appear here. Some of the results follow.
OBSERVATION TYPE: normalized growth
Give bare numbers.

Below are worked cases with known answers.
CC(=O)O[C@H]1C(=O)[C@@]2(C)C([C@H](OC(=O)c3ccccc3)[C@]3(O)C[C@H](OC(=O)[C@H](O)[C@@H](NC(=O)c4ccccc4)c4ccccc4)C(C)=C1C3(C)C)[C@]1(OC(C)=O)CO[C@@H]1C[C@@H]2O (stereo partly drawn) :: 1.1
CC(=O)O[C@H]1C(=O)[C@@]2(C)C([C@H](OC(=O)c3ccccc3)[C@]3(O)C[C@H](O)C(C)=C1C3(C)C)[C@]1(OC(C)=O)CO[C@@H]1C[C@@H]2O (stereo partly drawn) :: 0.966

Recall and state the measured normalized growth for CCc1ccc(CCOc2ccc(CC3SC(=O)NC3=O)cc2)nc1 (stereo not drawn) .
0.936

----------
Exercise: for every item that follows, state its recorded normalized growth.
Assay: chemical genetic growth profiling, strain panel (AID 1159580);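 also: tested at 20 µM; growth read once vehicle control cultures reached saturation at 30 °C; 1 = growth at the plate median or of vehicle wells; lower values mean less growth of the strain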
Details: S. cerevisiae deletion strains, growth OD, locus YDL132W, strain cdc53, active compounds read low
Out of some 5,500 compounds screened, about 2,000 (36%) were called active. Another 18% or so got no clear call; they are omitted. The list shows a part of the results.
Give bare numbers.

Check out these entries, answers already filled in.
O=C(CCN1CCCCC1)c1ccc(-c2ccccc2)cc1 :: 0.977
O=C(NCc1ccco1)c1ccc(Oc2cc(Cl)cc(Cl)c2)o1 :: 0.957
NC(N)=Nc1nc(-c2cc(Cl)sc2Cl)cs1 :: 0.979
Cc1c(C(=O)N2CCCCC2)cc(-c2ccccc2)n1-c1ccccc1 :: 0.973
CC1=CC(=O)C(CCOCCC2=CC(=O)C(C)=CC2=O)=CC1=O :: 0.988
Cc1oc2c(F)c(F)c(F)c(F)c2c1C(=O)ONC(N)c1ccc(OS(=O)(=O)N(C)C)cc1 (stereo not given) :: 0.982
COc1ccc(NC(=O)O/N=C(/N)c2ccc(Oc3c(Cl)cncc3Cl)cc2)cc1 :: 0.966
Cc1c(Cl)cccc1NC(=S)N1CCCN(c2ccc(C(F)(F)F)cc2[N+](=O)[O-])CC1 :: 0.986
CCC(C)c1ccccc1NC(=O)c1cc2cccc([N+](=O)[O-])c2[nH]1 (stereo not given) :: 0.896

--- query ---
Specify reported normalized growth for the molecule shown: `O=[N+]([O-])c1cc(C(F)(F)F)ccc1-n1ccc(-c2cccs2)n1`
0.96

----------
Assay: chemical genetic growth profiling, strain panel (AID 1159580);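 also: tested at 20 µM; growth read once vehicle control cultures reached saturation at 30 °C; 1 = growth at the plate median or of vehicle wells; lower values mean less growth of the strain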
Conditions: S. cerevisiae deletion strains, growth OD, locus YPR119W, strain clb2, active compounds read low
The whole screen tested about 5,500 compounds, of which about 2,000 (36%) were called active. Inconclusive results (about 18%) are left out. This is one part of the list.
OBSERVATION TYPE: normalized growth
Give bare numbers.

Below: 5 compounds and their reported normalized growth.
COc1ccc(C(=O)c2ccccc2O)c(O)c1 :: 0.931
COc1cccc2c1CCC1CC(=O)CCC21C (centres undefined) :: 0.958
CC(=O)OCC(CCn1cnc2cnc(N)nc21)COC(C)=O :: 0.974
COc1ccc2c(c1)OC[C@@H](Cc1ccc(OC)c(OC)c1)[C@@H]2O :: 0.983
c1ccc(CC2=NCCN2)cc1 :: 0.896

Below are 2 compounds. Give each one its normalized growth.
1. COc1c(CC=C(C)C)c2c(c3oc(=O)c(-c4ccc(O)cc4)c(O)c13)C=CC(C)(C)O2
2. COc1ccc2c(c1)C1(C)CCC(=O)CC1CC2 (centres undefined)

1. 0.977
2. 0.984

FYI, the data here is from PubChem BioAssay AID1159580.
